Biological target: HLA-A*23:01
Assay: IEDB peptide-MHC binding, purified MHC/competitive/fluorescence; filed as Kd, often an IC50 or EC50 that approximates it; bounds were set here for any values at or beyond the usual limits of such assays
Conditions: source organism: Entamoeba dispar SAW760
pKd: −log10 of the molar value.
outcomeMeasure: pKd

# returns recorded pKd (system: HLA-A*23:01) for LMTHTWHAK
≤ 4.70

* * *

Target: HLA-A*02:01
Assay: IEDB peptide-MHC binding, purified MHC/competitive/fluorescence; filed as Kd, often an IC50 or EC50 that approximates it; bounds were set here for any values at or beyond the usual limits of such assays
Settings: source organism: Zaire ebolavirus
pKd: −log10 of the molar value.
outcomeMeasure: pKd

- itemSequence: "SQVRVPTVF"
  valueMeasured: "≤ 4.70"
- itemSequence: "KVYWAGIEF"
  valueMeasured: "≤ 4.70"

Can you share its pKd? I mean this sequence: IFLKPDETF
≤ 4.70
